# assayed-system: T1, human interleukin-2 receptor α-chain (human, UniProt P01589 22-240, limits assumed)
# T1 construct: Recombinant human IL-2Rα protein, coated on the ELISA plate or amine-coupled to a CM5 chip; also called human IL-2Rα; hu IL-2R
# T1 sequence: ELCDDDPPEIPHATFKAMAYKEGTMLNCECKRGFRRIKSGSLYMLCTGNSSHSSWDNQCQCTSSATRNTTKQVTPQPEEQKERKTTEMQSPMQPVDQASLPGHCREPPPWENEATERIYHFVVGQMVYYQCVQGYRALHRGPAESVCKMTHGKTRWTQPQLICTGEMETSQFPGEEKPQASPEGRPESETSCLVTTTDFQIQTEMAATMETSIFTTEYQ
# assay-procedure: binding ELISA, periplasmic extract 1:5 on coated human IL-2Rα, anti-c-myc detection
# PE binding ELISA (OD450 nm) per record follows
Give just the numeric value; OD450 need not be written.

# binder, value-kind, uom, experimental-result
rows = [
    ("FJ1427_P035MP05C12 (VHH, Tested as soluble VHH in a crude periplasmic extract (P.E.); CDR3 family 1; also called Clone nr) VHH: EVQLVESGGGLVQAGDSLRLSCAASGFNFGWHAMGWFRQAPGKEREFVATITWTGRDTYYADSVRGRFTISKDNAKNTLFLQMSSLRPDDTGVYYCAKARERATWAYSEDDCDYWGQGTQVTVSS", "PE binding ELISA (OD450 nm)", "OD450", 2.4),
]

// next item, PE binding ELISA (OD450 nm) requested
Give the measured PE binding ELISA (OD450 nm) of FJ1427_P035MP05D12 (VHH, Tested as soluble VHH in a crude periplasmic extract (P.E.); CDR3 family 15; also called Clone nr) VHH: QLQLVESGGGSVQAGGSLRLSCAASGRTLYSSYGMAWFRQAPGKERDFVGSISRYGTYTSYADSVKDRFTISRDNAKSTVYLQMNNTKPEDTAVYYCAAYTYSGSFYSTVKTHRDEYQYWGQGTQVTVSS .
2.39
